The values you see were collected from patent US20240301052A1.

Recorded pEC50 by entry
# system: T1, human SLC34A2 (human, UniProt O95436 1-690)
# T1 construct: whole, on cells; also called human solute carrier 34 A2; NaPi2b
# T1 sequence (looked up): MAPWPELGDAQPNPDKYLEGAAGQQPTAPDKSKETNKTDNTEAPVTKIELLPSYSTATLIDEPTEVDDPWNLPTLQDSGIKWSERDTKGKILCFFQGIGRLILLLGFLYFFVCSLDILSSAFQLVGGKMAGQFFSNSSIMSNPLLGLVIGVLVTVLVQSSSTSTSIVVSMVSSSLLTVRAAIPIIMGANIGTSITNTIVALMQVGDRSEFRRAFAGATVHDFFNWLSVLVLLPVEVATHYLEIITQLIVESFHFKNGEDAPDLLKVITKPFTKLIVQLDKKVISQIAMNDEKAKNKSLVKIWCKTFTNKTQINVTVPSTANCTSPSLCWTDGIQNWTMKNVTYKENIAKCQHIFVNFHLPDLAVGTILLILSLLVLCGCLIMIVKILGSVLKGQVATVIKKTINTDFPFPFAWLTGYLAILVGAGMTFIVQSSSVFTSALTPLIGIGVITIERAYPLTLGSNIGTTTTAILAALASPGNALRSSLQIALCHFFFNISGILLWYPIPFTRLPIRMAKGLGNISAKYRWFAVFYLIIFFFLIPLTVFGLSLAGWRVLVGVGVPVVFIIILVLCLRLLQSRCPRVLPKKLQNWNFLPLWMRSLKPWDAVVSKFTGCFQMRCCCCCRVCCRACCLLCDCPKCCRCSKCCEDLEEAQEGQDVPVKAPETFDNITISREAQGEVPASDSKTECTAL
# assayNotes: FACS, HEK293/human SLC34A2 cells
# Method: The PTM-derisked VH chains were first tested for their impact on target binding. Cell based binding of PTM Abs on human SLC34A2 expressing cells were assessed using flow cytometry. Briefly, the HEK293/H_SLC34A2 cells were incubated with PTM Abs (from 200 nM, 4 folds dilution, 8 points). […] After that the cells were washed twice and analyzed by flow cytometry.
In simple prose, pEC50 is minus the logarithm base ten of a concentration in moles per litre.

# binder, testReadout, readoutValue
records = [
    ("xi30H9B8F9 hIgG1 (antibody, V domains shown, chimeric, hIgG1) VH: QVQLQQPGAELVKPGASVKMSCKTSGYTFTTNNMHWVKQTPGQGLEWIGAIYPGNGATAYNQKFKGKATLTADKSSSTAYMQLSSLTSEASAVYYCARGMYGHGAMDYWGQGTSVIVSS VL: DIVMTQSHKFMSRSVGDRVRITCKASQDVGTAVAWYQQKPGQSPKLLIYWATTRHSGVPDRFTGSGSGTDFIFTISNVQSEDLADYFCQQYSSNPLTFGAGTKLELK", "pEC50", 8.94),
    ("62G10E4G8 VH_P3/VL hIgG1 (antibody, V domains shown, PTM-derisked chimeric, hIgG1; that P3 is the NA version follows from the humanized .p3 chains; also called 62G10E4G8.p3 hIgG1) VH: QVQLQQSGAEVVKPGASVKMSCKASGYTFPSYITHWVKQTPGQGLEWIGAIYPGNADTSYIQKFKGKATLTADKSSSTAYMQLSSLTSEDSAVYYCARGTYGTSAWFTYWGQGTLVTVSA VL: DIVLTQSPATLSVTPGDSVSLSCRARQNIGNNLYWYQQKSHESPRLLIKYASQSISGIPSRFSGSGSGTDFTLTINSVETEDFGVYFCQQSFSWPLTFGAGTKLELK", "pEC50", 8.56),
]

Input line: Value lookup for pEC50; key = xi55E5B6D12 hIgG1 (antibody, V domains shown, chimeric, hIgG1) VH: QVQLQQSGAEVVNSGASVKMSCKASGYTFTTYNMHWVKQTPGQGLEWIGAIYPGNGDTSYNQRFKGKATFTADRSSGTAYMQLSSLPSEDSAVYYCARGGYANGALVDWGQGTLVTVSA VL: DILMTQSHKFMSTSVGDRVTITCKASQDVGTAVAWYQNKPGQSPKLLIFWTSTRHTGVPDRFTGSGSGTDFTLTISNVQSEDLADYFCQQYSRQPLTFGPGTKLEIK
Output line: 8.83
